Field: log10 of TGI. Provide a value for each of the compounds that follow.
Tested on: RXF 393 renal
test.protocol: NCI tumour cell line growth inhibition, 48 h
Please keep in mind that the values are log10 of TGI expressed in µM.

The cases that follow already have their log10 of TGI on record.
[
  {
    "compound": "COc1ccc2c(c1)c(-c1nc(-c3c[nH]c4ccncc34)cs1)cn2C",
    "log10 of TGI": 0.46
  },
  {
    "compound": "Nc1[nH]nc2nc3ccccc3nc12",
    "log10 of TGI": 1.94
  }
]

Each of the following entries comes with a recorded value; kindly state log10 of TGI for each.
1. COC(=O)c1ccc(C)cc1CC1Cc2ccc(C)cc2C1=O (stereo unspecified)
2. Cc1cc(S(=O)(=O)Nc2nc3ccccc3nc2-c2ccc(Cl)cc2)c(S)cc1Cl
3. O=C([CH-]C(=O)c1ccccc1)c1ccccc1.[CH-]1CCCCC1.[CH-]1CCCCC1.[CH-]1CCCCC1.[Sn+4]
4. COc1ccc2c(c1)[nH]c(=O)c1c3cccc(F)c3cn21
5. CNC(=O)c1c(NC(=O)c2ccc(C(C)(C)C)cc2)sc2c(CN(C)C)c(O)ccc12
6. COC(=O)C1Cc2c(n(C)c3ccccc23)C(CCC(=O)O)N1Cc1ccccc1 (stereo unspecified)
7. Cc1n[nH]c(=O)n1/N=C\c1ccccc1

1. 1.46
2. 1.67
3. 1.00
4. 1.53
5. 0.52
6. 1.95
7. 1.71

Quick batch: log10 of TGI for everything below.
1. CCCCCCCCCCCCCCCCCCn1cc[n+](C)c1
2. CCC(C)[C@H](NC(=O)Nc1cc(C(F)(F)F)cc(C(F)(F)F)c1)C(=O)N[C@@H](Cc1cn(C)cn1)C(=O)OC (stereo partly specified)
3. CC1CC[P+](c2ccccc2)(c2ccccc2)c2c1ccc1ccccc21 (stereo unspecified)
4. CN(C)c1ccc2oc(=O)c3ccccc3c2c1
5. O=C(CCC=C(S(=O)(=O)c1ccccc1)S(=O)(=O)c1ccccc1)c1ccccc1

1: 0.19; 2: -0.01; 3: 1.64; 4: 1.90; 5: 1.30

* * *

System: HCT-116 colon
test.protocol: NCI tumour cell line growth inhibition, 48 h
Field: TGI. Provide a value for each of the compounds that follow.
Answers are plain numbers, in µM.

Example cases with answers are listed next.
[
  {
    "compound": "COc1cc(OC)c2c3c(OC)cc(OC)c4c(=O)c(O)c(C[C@@H](C)O)c(c5c(C[C@@H](C)O)c(O)c(=O)c1c25)c43",
    "TGI (µM)": 30.1
  },
  {
    "compound": "NC(=O)c1cc([N+](=O)[O-])c(Cl)c([N+](=O)[O-])c1Cl",
    "TGI (µM)": 0.582
  },
  {
    "compound": "Cc1ccc(/C=N/Nc2nc(Nc3ccccc3)nc(-n3nc(C)cc3C)n2)cc1",
    "TGI (µM)": 11.7
  },
  {
    "compound": "COC12C=C/C(=C(/C(=O)OCc3ccccn3)C(=O)CCCCCCCCC3(OC)C=C/C(=C(/C(=O)OCc4ccccn4)C(=O)CCCCCCCC1)O3)O2",
    "TGI (µM)": 0.47
  }
]

For every listed record, write down its TGI.
1. COc1ccc2c3c([nH]c2c1[N+](=O)[O-])C(C)N(Cc1ccccc1)CC3 (configuration not stated)
2. Cc1cc(=O)n2nc(CCl)sc2n1
3. COc1cc(OC)cc(-c2n/c(=C\c3c(O)[nH]c4ccc(OC)cc34)cc3c2=Nc2ccccc2-3)c1
4. CC1CC/C(=C\c2ccc(F)cc2)C(=O)/C1=C/c1ccc(F)cc1 (configuration not stated)
5. COc1ccc2c3c([nH]c2c1)CCN(CCCC(=O)c1ccc(F)cc1)C3

24
24.9
3.16
5.4
25

* * *

Tested on: RPMI-8226 leukemia
test.protocol: NCI tumour cell line growth inhibition, 48 h
property.name: GI50

Examples with answers:
[
  {
    "smiles.data": "CCN(CC)CCN1C(=O)c2c(c3c4ccccc4[nH]c3c3ccc4ccccc4c23)C1=O",
    "assay.target": "RPMI-8226 leukemia",
    "property.name": "GI50",
    "experimental.value": "2.01 µM"
  },
  {
    "smiles.data": "COc1ccc2c(c1OC)CO[C@@H]2[C@H]1c2c(cc3c(c2OC)OCO3)CCN1S(=O)(=O)c1cn(C)cn1",
    "assay.target": "RPMI-8226 leukemia",
    "property.name": "GI50",
    "experimental.value": "2.48 µM"
  }
]

// for each molecule below, give its GI50
1. CC(C)(C)c1ccc(Oc2ccc(N)cn2)cc1
2. COc1ccc(-c2nc(-c3ccc(C)cc3)cn3ccnc23)cc1
3. COc1cc(Nc2ncc(-c3ccccc3)o2)cc(OC)c1
4. O=C(Nc1cccc(O)c1)c1ccc(NC2=C(Cl)C(=O)N(Cc3ccc(Cl)cc3Cl)C2=O)cc1

1: 1.99 µM; 2: 2.89 µM; 3: > 25 µM; 4: 0.749 µM

* * *

Test system: HCT-116 colon
test.protocol: NCI tumour cell line growth inhibition, 48 h
property.name: TGI (µM)
Numbers only, in µM.

Example results:
[
  {
    "compound": "CC(C)=CCc1[nH]c2ccccc2c1C1=C(O)C(=O)C(c2c(CC=C(C)C)[nH]c3ccccc23)=C(O)C1=O",
    "value.units": "µM",
    "TGI": 3.78
  },
  {
    "compound": "Cc1cccc(N2C(=O)C3c4[nH]c5ccccc5c4C4CCC(C(C)(C)C)CC4C3C2=O)c1 (centres undefined)",
    "value.units": "µM",
    "TGI": 21.2
  },
  {
    "compound": "Cc1c(N=Nc2ccccc2)c(C)n(C2OC(CO)C(O)C(O)C2O)c(=S)c1C#N (centres undefined)",
    "value.units": "µM",
    "TGI": 46.2
  },
  {
    "compound": "CCC(C)[C@H](NC(=O)Nc1cc(C(F)(F)F)cc(C(F)(F)F)c1)C(=O)N[C@@H](Cc1cn(C)cn1)C(=O)OC (some centres undefined)",
    "value.units": "µM",
    "TGI": 1.21
  },
  {
    "compound": "O=C(/C=C\\c1ccc([N+](=O)[O-])cc1)c1ccccc(=O)c1O",
    "value.units": "µM",
    "TGI": 2.35
  },
  {
    "compound": "CN(C)CCNC(=O)c1cccc2cc3c(Cl)cccc3nc12",
    "value.units": "µM",
    "TGI": 2.97
  },
  {
    "compound": "COC(=O)[C@H](Cc1cnc[nH]1)NC(=O)[C@@H](NC(=O)Nc1cc(C(F)(F)F)cc(C(F)(F)F)c1)C(C)C",
    "value.units": "µM",
    "TGI": 40.7
  },
  {
    "compound": "C=C1CC(Cn2ccc(=O)[nH]c2=O)(c2ccc(Cl)cc2)OC1=O (centres undefined)",
    "value.units": "µM",
    "TGI": 5.63
  },
  {
    "compound": "Cc1ccccc1NC(=O)c1sc2nc(C)c(C(=O)/C=C/c3ccccc3)cc2c1N",
    "value.units": "µM",
    "TGI": 1.96
  }
]

// next item, TGI requested
Sure, the documented TGI for O=C1C(c2ccc(Br)cc2)=[N+]([O-])c2ccccc21 is 27.5

* * *

Tested on: EKVX NSCLC
test.protocol: NCI tumour cell line growth inhibition, 48 h; in the data active = GI50 below about 0.43 µM; inactive = the rest
One label from this list, please: active, inactive

[
  {
    "molecule": "COc1cc(/C=N/Nc2ncnc3c2cnn3-c2ccccc2)ccc1O",
    "assay.target": "EKVX NSCLC",
    "answer.label": "inactive"
  },
  {
    "molecule": "O=C(N/N=C\\c1ccc(N(CCCl)CCCl)cc1[N+](=O)[O-])c1cccnc1",
    "assay.target": "EKVX NSCLC",
    "answer.label": "inactive"
  },
  {
    "molecule": "O=C([CH-]C(=O)c1ccccc1)c1ccccc1.[CH-]1CCCCC1.[CH-]1CCCCC1.[CH-]1CCCCC1.[Sn+4]",
    "assay.target": "EKVX NSCLC",
    "answer.label": "inactive"
  },
  {
    "molecule": "C[C@]12CC[C@H]3[C@@H](CC=C4C[C@@H](N5CCCC5)CC[C@@]43C)[C@@H]1C/C(=C\\c1cccc(OCCN3CCOCC3)c1)[C@@H]2O",
    "assay.target": "EKVX NSCLC",
    "answer.label": "inactive"
  },
  {
    "molecule": "COC(=O)C1=C(O)[C@H](C(=O)OC)C2(O)C(C(=O)OC)[C@H](c3ccc(OC(=O)C(C)c4ccc(CC(C)C)cc4)cc3)C[C@@H]1[C@@H]2C(=O)OC (stereo partly drawn)",
    "assay.target": "EKVX NSCLC",
    "answer.label": "inactive"
  },
  {
    "molecule": "COc1ccc(/C(COc2ccc3oc(-c4ccccc4)cc(=O)c3c2)=N\\O)cc1",
    "assay.target": "EKVX NSCLC",
    "answer.label": "active"
  }
]

Check the results log: what was the call for COCc1c(-c2cc3cc(C)cc(OC)c3s2)c2c(N)ncnn2c1CN1CCNC(=O)C1 ? inactive

Called result for CC(=O)[O-].Cn1ccnc1CNCc1nccn1C.[Cu+2].[O-][Cl+3]([O-])([O-])[O-] inactive

src = PubChem BioAssay (NCI)
